test: small-molecule binders of probe aNOTCH2, primary screen, biochemical, small-molecule microarray, 635/667 nm fluorescence (AID 1121); settings: higher = more signal;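 note: score merges feature fluorescence read at 667 nm with its signal to noise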
VALUE_TYPE: composite z-score

[[record]]
molecule = "O=C1C[C@@](C(=O)NCCN2CCOCC2)(c2ccc([N+](=O)[O-])cc2)[C@@H](c2ccc(CO)cc2I)N1C1CCCCC1"
assay_result = -0.14

[[record]]
molecule = "C=CCC(OC(C)=O)[C@@H]1[C@@H](N(Cc2cccc3ccccc23)C(=O)Cc2ccc(F)cc2)c2cc(OCCCO)ccc2N1C(=O)c1ccc2ccccc2n1 (stereo not given in full)"
assay_result = 0.0156

[[record]]
molecule = "Cc1cc(C)c(C(O)C2C=CC3C(=O)N(c4ccccc4)C(=O)C3N2Nc2ccc(C(C)C)cc2)c(C)c1 (stereo not given)"
assay_result = 0.0557

[[record]]
molecule = "O=C(NCCCCCNC(=O)/C(Cc1ccccc1)=N/O)OCc1ccccc1"
assay_result = -0.195

[[record]]
molecule = "COC(=O)[C@@]1(Cc2ccccc2)[C@H]2c3cc(C(=O)N(C)C)n(CCN4CNCC4=O)c3C[C@H]2CN1C(=O)c1ccccc1"
assay_result = 0.37

[[record]]
molecule = "O=C1O[C@@H](c2ccccc2)[C@@H](c2ccccc2)N2[C@@H](c3ccc(O)cc3)[C@]3(C(=O)Nc4ccc(C#CC5=CCCCC5)cc43)[C@@H](C(=O)NC[C@H](O)c3ccccc3)[C@H]12"
assay_result = 0.0556

[[record]]
molecule = "C=C[C@@H](OC)[C@H](OC(=O)Nc1ccc(SC)cc1)c1ccc(O)c(F)c1"
assay_result = -0.0891

[[record]]
molecule = "CCOC(=O)C1=C[C@@H](c2ccccc2)N(S(=O)(=O)c2ccc(C)cc2)[C@H]1c1ccccc1Cl"
assay_result = 0.23

[[record]]
molecule = "CC(=O)NCCCC[C@@H]1NC(=O)[C@H]2C[C@@H](C(=O)NCCCC[N+](C)(C)C)[C@@H](c3cccc(OCCO)c3)N2C1=O"
assay_result = -0.0974

[[record]]
molecule = "O=C1O[C@H](c2ccccc2)[C@H](c2ccccc2)N2[C@H]1[C@@H](C(=O)Nc1nc3ccccc3s1)[C@]1(C(=O)Nc3ccc(C#CCCO)cc31)[C@H]2c1ccc(O)cc1"
assay_result = -0.156

[[record]]
molecule = "O=C(NCc1ccccc1)[C@@H]1c2ccccc2C(=O)N(Cc2ccccc2C(F)(F)F)[C@H]1c1ccc(CO)cc1"
assay_result = -0.13

[[record]]
molecule = "CC(CO)N1C(=O)[C@@H]2[C@H]3C(=O)OCC=C[C@H]3OC23C=CCN(C(C)(C)C)C(=O)[C@@H]13 (stereo not given in full)"
assay_result = -0.125

[[record]]
molecule = "C=CCNC(=O)[C@H]1[C@@H]2C(=O)O[C@@H](c3ccccc3)[C@@H](c3ccccc3)N2[C@@H](c2ccc(O)cc2)[C@]12C(=O)Nc1ccc(C#CC3(O)CCCCCC3)cc12"
assay_result = -0.0695

[[record]]
molecule = "CC(C)(C)OC(=O)CC[C@@]1(C(=O)NCc2ccccc2)N=C(c2ccc(OCCCO)cc2)O[C@@H]1c1ccccc1N=[N+]=[N-]"
assay_result = 0.115

[[record]]
molecule = "CC(=O)NCCCC[C@@H]1NC(=O)[C@@H]2C[C@H](C(=O)NCCCC[N+](C)(C)C)[C@H](c3ccc(O)cc3)N2C1=O"
assay_result = -0.0467

[[record]]
molecule = "C#CCN([C@@H](Cc1ccc(O)cc1)C(=O)OC)[C@@H](/C=C/C1CC1)[C@H](O)Cc1ccccc1"
assay_result = -0.172

[[record]]
molecule = "CN(C)CCCNC(=O)[C@@]1(C)c2ccccc2C(=O)N(Cc2ccccc2)[C@H]1c1ccc(CO)cc1"
assay_result = -0.236

[[record]]
molecule = "O=C1NC(=O)C2C1C=CC(C(O)c1c(F)cccc1Cl)N2Nc1ccc(Cl)cc1Cl (stereo not given)"
assay_result = 0.232

[[record]]
molecule = "[N-]=[N+]=NCc1ccccc1[C@@H]1OC(c2ccc(OCCCO)cc2)=N[C@]1(CCS(=O)(=O)c1ccccc1)C(=O)NCC(O)CO (stereo not given in full)"
assay_result = 0.208

[[record]]
molecule = "COC(=O)CCCCCCC(=O)Nc1ccc(NC(=O)CCCC[P+](c2ccccc2)(c2ccccc2)c2ccccc2)cc1"
assay_result = -0.134

[[record]]
molecule = "C=C(COC)/C(=C/C[C@H](OC(C)=O)c1ccc(OCCO)cc1)c1cc(C(=O)OC)ccc1OC"
assay_result = -0.107

[[record]]
molecule = "COc1cccc(/C=C/C=O)c1"
assay_result = 0.142

[[record]]
molecule = "C=CC[C@]1(C(=O)NCCN2CCOCC2)N=C(c2ccc(OCCCO)cc2)O[C@H]1c1ccccc1CN=[N+]=[N-]"
assay_result = 0.0855

[[record]]
molecule = "Cc1ccccc1C(O)C1C=CC2C(=O)N(C)C(=O)C2N1N(c1ccccc1)c1ccccc1 (stereo not given)"
assay_result = 0.473

[[record]]
molecule = "COC(=O)[C@@]1(Cc2ccccc2)[C@H]2c3cc(C(=O)N(C)C)n(CCc4ccc(O)c(OC)c4)c3C[C@H]2CN1C(=O)c1ccccc1"
assay_result = 0.401

[[record]]
molecule = "O=C1O[C@@H](c2ccccc2)[C@@H](c2ccccc2)N2[C@@H](c3ccc(OCCO)cc3)[C@]3(C(=O)Nc4ccccc43)[C@@H](C(=O)O)[C@H]12"
assay_result = 0.464

[[record]]
molecule = "O=C1O[C@H](c2ccccc2)[C@H](c2ccccc2)N2[C@H]1[C@@H](C(=O)O)[C@]1(C(=O)Nc3ccc(C#CC4=CCCCC4)cc31)[C@H]2c1ccc(O)cc1"
assay_result = -0.105

[[record]]
molecule = "COC(=O)[C@@]1(Cc2ccc(OC)cc2)[C@@H]2C(=CC(=O)[C@H]2CC(=O)C(=O)N(C)C)CN1C(=O)c1ccccc1"
assay_result = 0.358

[[record]]
molecule = "C=C(C)c1cc2c(c(CCCCCC)n1)[Si](C(C)C)(C(C)C)OC2"
assay_result = -0.146

[[record]]
molecule = "O=C1OCC=C[C@H]2OC34C=CCN(c5ccc(Cl)cc5)C(=O)[C@H]3N(CCO)C(=O)[C@@H]4[C@@H]12 (stereo not given in full)"
assay_result = -0.211


====

target: Follistatin (Homo sapiens) (UniProt P19883); test: follistatin binders on small-molecule microarrays, primary screen, biochemical, small-molecule microarray, 635/667 nm fluorescence (AID 1132); conditions: FST binding, 635 nm fluorescence, higher = more signal
Sequence (P19883 whole entry, looked up): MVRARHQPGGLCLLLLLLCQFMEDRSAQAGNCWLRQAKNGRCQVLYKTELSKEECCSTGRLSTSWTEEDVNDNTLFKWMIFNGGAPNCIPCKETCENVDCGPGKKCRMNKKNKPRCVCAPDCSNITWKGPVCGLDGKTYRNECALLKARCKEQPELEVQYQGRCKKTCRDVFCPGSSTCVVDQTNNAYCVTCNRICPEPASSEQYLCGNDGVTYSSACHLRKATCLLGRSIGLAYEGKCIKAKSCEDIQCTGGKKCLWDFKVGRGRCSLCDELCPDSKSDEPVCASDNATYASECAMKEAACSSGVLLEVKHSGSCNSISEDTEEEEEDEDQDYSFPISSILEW
VALUE_TYPE: composite z-score

[[record]]
compound = "COc1cc2c(cc1OC)CN(C(=O)[C@@H]1[C@H]3C(=O)O[C@H](c4ccccc4)[C@H](c4ccccc4)N3[C@H](c3ccc(OCCO)cc3)[C@@]13C(=O)Nc1ccc(C#CC4(O)CCCCCC4)cc13)CC2"
assay_result = 1.41

[[record]]
compound = "CCOC(=O)C[C@H]1[C@H](OC(=O)c2ccc(C(=O)c3ccccc3)cc2)[C@@H](NC(=O)Cc2ccc(OC)cc2)c2cc(OCCCO)ccc2N1C(=O)c1ccccc1"
assay_result = -0.17

[[record]]
compound = "CC(C)C[C@@H]1NC(=O)[C@@H]2C[C@H](C(=O)NCCCCCN)[C@H](c3ccc(O)cc3)N2C1=O"
assay_result = 1.43

[[record]]
compound = "C=C(/C(=C/C[C@H](OC(=O)c1ccncc1)c1ccc(CO)o1)c1cc(C(=O)OC)ccc1OC)C(C)C"
assay_result = 1.07

[[record]]
compound = "C=CCNC(=O)[C@H]1[C@@H]2C(=O)O[C@@H](c3ccccc3)[C@@H](c3ccccc3)N2[C@@H](c2ccc(O)cc2)[C@]12C(=O)N(C(=O)OCCOC)c1ccccc12"
assay_result = 0.852

[[record]]
compound = "N#Cc1ccc(C(O)C2C=CC3C(=O)N(c4ccccc4)C(=O)C3N2Nc2ccccc2)cc1 (stereo not given)"
assay_result = 0.351

[[record]]
compound = "CN(C)C(=O)[C@]1(CCS(=O)(=O)c2ccccc2)N=C(c2ccc(OCCCO)cc2)O[C@@H]1c1ccccc1N=[N+]=[N-]"
assay_result = 1.44

[[record]]
compound = "C=CC[C@]1(C(=O)O)COC(c2ccc(OCCCO)cc2)=N1"
assay_result = 0.372

[[record]]
compound = "COCC1=C2[C@@H](CCc3ccccc3)OB(O)C[C@@H]2[C@@H]2C(=O)C=CC(=O)[C@@H]2C1"
assay_result = 0.648

[[record]]
compound = "O=C1NC(=O)C2C1C=CC(C(O)c1ccco1)N2Nc1ccccn1 (stereo not given)"
assay_result = 0.292

[[record]]
compound = "CC(C)Cc1ccc(CN2CC[C@@H](NC(=O)Nc3ccccc3)C2)cc1"
assay_result = -0.182

[[record]]
compound = "CC(C)C(=C=CC[C@H](O)c1cccc(OCCO)c1)C[C@H](O)c1cc(Cl)cc(Cl)c1O"
assay_result = 1.31

[[record]]
compound = "CCOC(=O)C[C@H]1[C@H](OC(=O)c2cc3ccccc3oc2=O)[C@@H](NC(=O)c2ccc(-c3ccccc3)cc2)c2cc(OCCCO)ccc2N1C(=O)c1ccc2ccccc2n1"
assay_result = 1.11

[[record]]
compound = "COc1ccc(C(O)C2C=CC3C(=O)N(c4ccccc4)C(=O)C3N2Nc2ccc([N+](=O)[O-])cc2)cc1 (stereo not given)"
assay_result = 0.848

[[record]]
compound = "CC(C)N1C(=O)c2ccccc2[C@@H](C(=O)NC2CC2)[C@@H]1c1ccc(CO)cc1"
assay_result = 1.04

